system: SARS-CoV-2; experiment: microbe, parasite or virus in culture; assay type: cell-based; details: Vero E6, MOI 0.01, treatment 1 hpi; read-out: Mean IC50 (viral replication)
endpoint-label: IC50 (µM)

                                   compound  unit_tag  observed_result
0  COc1ccc2cc(-c3c(C(=O)O)cccc3C(=O)O)ccc2c1 [Naproxen C0]        µM               73

----------
Parameter: CC50 at 72 h post infection. Scope: all listed entries.
assay: in vitro; details: African green monkey
endpoint-label: CC50 at 72 h post infection

>>> print(df.to_string())
                                   compound               endpoint_label  observed_result
0  COc1ccc2cc(-c3c(C(=O)O)cccc3C(=O)O)ccc2c1  CC50 at 72 h post infection        > 1000 µM
1  COc1ccc2cc(C(CCC(=O)O)C(=O)O)ccc2c1 (centres unmarked)  CC50 at 72 h post infection        > 1000 µM

----------
assay: Cytotoxicity in Vero E6 cells; settings: African green monkey
CC50 at 48 h post infection values for the compounds below.
endpoint-label: CC50 at 48 h post infection (µM)

>>> df
                                smiles_text               endpoint_label  result_qualifier  observed_result
0  Cc1ccc(-c2cc(C(F)(F)F)nn2-c2ccc(S(N)(=O)=O)cc2)cc1  CC50 at 48 h post infection                 =               83
1                        CC(=O)Nc1ccc(O)cc1  CC50 at 48 h post infection                 >              400

----------
molecular target: SARS-CoV-2 N-NTD (monomer) with labeled 10-mer RNA (Severe acute respiratory syndrome coronavirus 2, UniProt P0DTC9)
endpoint-label: Kd (nM)

>>> df
                                smiles_text  endpoint_label  observed_result
0  COc1ccc2cc(-c3c(C(=O)O)cccc3C(=O)O)ccc2c1              Kd             1600

Reference for the values: paper PMC8124269
